Target: human IL-23R (Homo sapiens, UniProt Q5VWK5)
Construct: UniProtKB—Q5VWK5, amino acids 22-629; secretion signal of the plasmid (Promega N1371); expressed in transfected cells
Sequence (Q5VWK5 22-629): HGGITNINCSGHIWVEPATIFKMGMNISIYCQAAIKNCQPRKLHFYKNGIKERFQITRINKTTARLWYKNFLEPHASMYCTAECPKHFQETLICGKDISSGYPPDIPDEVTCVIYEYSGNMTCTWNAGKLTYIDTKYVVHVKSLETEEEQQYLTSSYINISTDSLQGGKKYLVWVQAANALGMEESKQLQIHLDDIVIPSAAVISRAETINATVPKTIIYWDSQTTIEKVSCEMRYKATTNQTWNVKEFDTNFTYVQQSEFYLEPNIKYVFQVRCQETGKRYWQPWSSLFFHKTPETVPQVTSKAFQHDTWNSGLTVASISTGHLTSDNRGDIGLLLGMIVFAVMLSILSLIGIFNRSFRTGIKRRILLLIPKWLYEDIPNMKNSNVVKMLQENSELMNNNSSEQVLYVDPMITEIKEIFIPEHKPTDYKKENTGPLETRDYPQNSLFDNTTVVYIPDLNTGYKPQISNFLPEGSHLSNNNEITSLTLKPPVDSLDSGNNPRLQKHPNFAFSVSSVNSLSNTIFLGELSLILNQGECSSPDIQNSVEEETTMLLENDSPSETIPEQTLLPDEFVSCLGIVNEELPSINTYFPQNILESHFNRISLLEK
Test: Binding assay (NanoBRET displacement of fluorophore-labelled reference compound) for estimating binding affinity to human IL-23R
Conditions: Table 3-1; read-out: Ki hIL-23R
*1 amine or outer side, *2 acyl side, *3 side chain or, on linkers, in order; H or OH if unused. Where a SMILES comes first, the peptide text is derived from it. Bridges are numbered along the chain shown (N, C = ends). [ ]: non-standard residue; d: D form. Ala(quinolin-3-yl) = N[C@@H](Cc1cnc2ccccc2c1)C(=O)O; 2Nal = N[C@@H](Cc1ccc2ccccc2c1)C(=O)O; AEF = NCCOc1ccc(C[C@H](N)C(=O)O)cc1; 3Pal = N[C@@H](Cc1cccnc1)C(=O)O; αMeL = CC(C)C[C@](C)(N)C(=O)O; CH2COCH2 = O=C(C[*:1])C[*:2]; αMeV = CC(C)[C@](C)(N)C(=O)O; 3Amb = NCc1cccc(C(=O)O)c1; Dab = NCC[C@H](N)C(=O)O
MEASURED QUANTITY: pKi
A value of pKi is the negative decimal logarithm of a concentration given in moles per litre.

Task: Check the records and state pKi for CC[C@H](C)[C@@H]1NC(=O)c2cccc(c2)CNC(=O)CC[C@@H](C(=O)N[C@@H](CCN)C(=O)N[C@@H](Cc2cccnc2)C(N)=O)NC(=O)[C@](C)(C(C)C)NC(=O)[C@H](Cc2ccc3ccccc3c2)NC(=O)[C@H](Cc2ccc(OCCN)cc2)NC(=O)[C@@H]2CCNC(=O)CC[C@H](NC1=O)C(=O)N[C@@H](Cc1c[nH]c3ccccc13)C(=O)N[C@@H](CCC(N)=O)C(=O)N2 [Compound 156] ([3Amb]IEWQ[Dab][AEF][2Nal][αMeV]E[Dab][3Pal]-NH2; lactam 3-6, N-10)
Result: 10.80

Task: Check the records and state pKi for CC(C)C[C@]1(C)NC(=O)[C@H](Cc2ccc3ccccc3c2)NC(=O)[C@H](Cc2ccc(OCCN)cc2)NC(=O)[C@@H]2CSCC(=O)CSC[C@H](NC(=O)[C@H](CO)NC(=O)c3cccc(c3)CNC(=O)CC[C@@H](C(=O)N[C@@H](CCCNC(=N)N)C(=O)N[C@@H](Cc3cnc4ccccc4c3)C(N)=O)NC1=O)C(=O)N[C@@H](Cc1c[nH]c3ccccc13)C(=O)N[C@@H](CCC(N)=O)C(=O)N2 [Compound 149] ([3Amb]SCWQC[AEF][2Nal][αMeL]ER[Ala(quinolin-3-yl)]-NH2; linker 3-6 via CH2COCH2; lactam N-10)
Result: 9.79
